test: protein stability index of a GFP-peptide fusion (GPS, HEK-293T) (PSI 1-6); higher = more stable; conditions: treatment: MLN4924 1 uM, 8 h; c terminus: a fixed tail appended;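 further: 24-mer peptide tiles fused after GFP, lentivirally expressed, FACS-sorted into six equal bins by GFP/DsRed ratio, decoded by Illumina sequencing, PSI is the read-weighted mean bin number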
property measured: protein stability index

GLDSPPLYPSAPILGGSGPVRKLY [ESRRG]
3.49
KEKLQKCLEPLEQKLQEITRCKSS [TRIM39]
4.44
FRIILGDFDYNAIDNANRILGPAY [PKD2L1]
2.62
LLVGGLPPGPDRLPSNLVQYYDDE [KLHL14]
4.04
PAQSGILSDREVVNLFLHFTVNPK [BTBD1]
2.53
LLPIVPLSWLVWLLLLLLASLLPS [ADAMTS4]
3.17

We now examine a further sequence.
Quick check: protein stability index of YAMGITECDNMLMLLSVSQSMSEE [SEPHS2] ?
2.44

All values here come from the supplement of paper PMC10567573.
